cell viability values by entry
Tested on: SEM cells
Assay: cell viability relative to DMSO control; higher = less cytotoxic
Settings: RPMI 5 mM glucose + 10% dialyzed FBS; 48 h; 0.19 µM
The figure you give is taken to be in %; do not add the unit.

[
  {
    "COMPOUND": "O=P(O)(O)C(O)(Cc1cccnc1)P(=O)(O)[O][Na] (stereo not given)",
    "MEASURED METRIC": "cell viability",
    "UNIT OF MEASUREMENT": "%",
    "VALUE": 116
  },
  {
    "COMPOUND": "CN1[C@@H]2CC(O)C[C@H]1[C@@H]1O[C@@H]12 (stereo not given in full)",
    "MEASURED METRIC": "cell viability",
    "UNIT OF MEASUREMENT": "%",
    "VALUE": 111
  },
  {
    "COMPOUND": "CCN(CC)CCOC1=CC=C(NC2=NC=C3\\C=C(/C(=O)N(C)C3=N2)C4=C(Cl)C=CC=C4Cl)C=C1",
    "MEASURED METRIC": "cell viability",
    "UNIT OF MEASUREMENT": "%",
    "VALUE": 69.1
  },
  {
    "COMPOUND": "CCc1cc(/C(C)=N/OCc2ccc(C3CCCCC3)c(C(F)(F)F)c2)ccc1CN1CC(C(=O)O)C1",
    "MEASURED METRIC": "cell viability",
    "UNIT OF MEASUREMENT": "%",
    "VALUE": 124
  }
]

Turning now to a further record.
Param readout= cell viability; system= SEM cells; entry= "Cl.Cl.Fc1ccc(C(OCCN2CCN(CCCc3ccccc3)CC2)c2ccc(F)cc2)cc1" ; returns value.
124

----------
Tested on: P12-Ichikawa
Assay: cell viability relative to DMSO control; higher = less cytotoxic
Details: RPMI 5 mM glucose + 10% FBS; 48 h; 46.1 µM
We begin with a simple list: items and their reported cell viability.
Output spec: scalar in %, unitless text.

Some compounds with known cell viability results, for comparison:
[
  {
    "COMPOUND": "COc1ccc(CCC(=O)Nc2nc3ccc(Cl)cc3s2)cc1OC",
    "TARGET DESC": "P12-Ichikawa",
    "cell viability (%)": 92.1
  },
  {
    "COMPOUND": "CC(C)(O)CNc1nc(Nc2ccnc(C(F)(F)F)c2)nc(-c2cccc(C(F)(F)F)n2)n1",
    "TARGET DESC": "P12-Ichikawa",
    "cell viability (%)": 13.2
  },
  {
    "COMPOUND": "C[C@@]12OC(=O)[C@@]1(NC(=O)[C@@H]2CCCl)[C@@H](O)[C@H]\\3CCC\\C=C3",
    "TARGET DESC": "P12-Ichikawa",
    "cell viability (%)": 0.774
  }
]

What cell viability appears in the records for this compound with P12-Ichikawa? "O=C(Oc1ccc([N+](=O)[O-])cc1)N1CCN(Cc2cccc(Oc3ccccc3)c2)CC1"
107

GET /values?readout=cell viability&system=P12-Ichikawa&item= "COc1cc(/C=C/C(=O)CC(=O)/C=C/c2ccc(O)c(OC)c2)ccc1O"
4.23

Write down the reported cell viability of "CN(C)[C@H]\1[C@@H]2[C@@H](O)[C@@H]\3C(=C)C4=C(C(=CC=C4)O)C(=O)C3=C(\O)[C@@]2(O)C(=O)\C(=C1O)C(N)=O" , test system: P12-Ichikawa.
99.1

I'm curious: which cell viability was measured for "CCOC(=O)c1ncn2c1CN(C)C(=O)c1cc(F)ccc1-2" tested on P12-Ichikawa?
48.9

Form entry - test system: P12-Ichikawa; read-out: cell viability; compound: "CC1=C(C)C2=C(S1)[N]3C(=NN=C3[C@H](CC(=O)OC(C)(C)C)/N=C2/C4=CC=C(Cl)C=C4)C"
13.6

P12-Ichikawa / cell viability / "NC\1=N\C(=O)N(\C=N1)[C@H]2C[C@H](O)[C@@H](CO)O2" : value?
27.5

Return cell viability measured with P12-Ichikawa given this compound: Cn1c(=O)c2c(ncn2CC(O)CO)n(C)c1=O (stereo not drawn)
128

For the record CN1C(=O)COc2c(C(=O)NC3CN4CCC3CC4)cc(Cl)cc21 (stereo not drawn) , what value of cell viability is listed for P12-Ichikawa?
121

# get_value(readout= cell viability, system= P12-Ichikawa) for "CC1=C(/C=C/C(C)=C/C=C/C(C)=C/C(=O)Nc2ccc(O)cc2)C(C)(C)CCC1"
1.15
